Below, each of the compounds is paired with its reported IC50 value.
- MEASUREMENT TARGET: human full length PKCE enzyme (Homo sapiens, UniProt Q02156)
- Sequence (Q02156 whole entry): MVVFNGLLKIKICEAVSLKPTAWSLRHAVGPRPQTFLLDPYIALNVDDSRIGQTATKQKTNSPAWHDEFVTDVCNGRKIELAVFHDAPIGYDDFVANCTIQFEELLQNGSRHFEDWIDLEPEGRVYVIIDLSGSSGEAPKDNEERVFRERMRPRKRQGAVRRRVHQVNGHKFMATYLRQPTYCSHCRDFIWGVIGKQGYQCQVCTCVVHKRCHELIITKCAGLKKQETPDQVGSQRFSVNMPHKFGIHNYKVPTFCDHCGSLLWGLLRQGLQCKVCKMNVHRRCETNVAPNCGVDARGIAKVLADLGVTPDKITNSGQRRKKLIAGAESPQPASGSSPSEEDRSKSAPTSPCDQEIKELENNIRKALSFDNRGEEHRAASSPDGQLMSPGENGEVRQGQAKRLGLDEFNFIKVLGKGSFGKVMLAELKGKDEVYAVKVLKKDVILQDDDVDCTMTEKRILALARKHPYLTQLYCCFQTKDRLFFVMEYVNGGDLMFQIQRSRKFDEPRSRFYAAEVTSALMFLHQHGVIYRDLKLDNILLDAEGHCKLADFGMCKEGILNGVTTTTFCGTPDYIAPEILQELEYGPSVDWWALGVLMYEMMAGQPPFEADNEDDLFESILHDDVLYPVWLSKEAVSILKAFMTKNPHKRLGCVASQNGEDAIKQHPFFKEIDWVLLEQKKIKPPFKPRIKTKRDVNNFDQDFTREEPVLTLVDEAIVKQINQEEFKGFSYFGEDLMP

# COMPOUND, METRIC, MEASURED RESULT
measured = [
    ("Cc1ccccc1-c1cnc(N)c(C(=O)Nc2cnccc2N2CCCC(N)C2)n1 (stereo not drawn) [Example 351]", "IC50", "< 1 µM"),
    ("Nc1ncc(-c2ccccc2)nc1C(=O)Nc1cnccc1N1CCC(N)CC1 [Example 364]", "IC50", "< 1 µM"),
    ("Nc1ncc(-c2ccccc2F)nc1C(=O)Nc1ccccc1N1CCCC(N)C1 (stereo not drawn) [Example 374]", "IC50", "< 1 µM"),
    ("NC(=O)c1cccc(-c2cnc(N)c(C(=O)Nc3ccccc3N3CCNCC3)n2)c1 [Example 385]", "IC50", "< 1 µM"),
    ("Cc1ccc(F)c(-c2ccc(N)c(C(=O)Nc3cnccc3N3CCC[C@H](N)C3)n2)c1 [Example 333]", "IC50", "10 to 25 µM"),
    ("Nc1ccc(-c2cnc(N)c(C(F)(F)F)c2)nc1C(=O)Nc1cnccc1N1CCC[C@H](N)C1 [Example 482]", "IC50", "> 25 µM"),
]

Lookup: What value of measured IC50 is listed for Nc1ccc(-c2ccc(N)c(C(=O)Nc3cnccc3N3CCC[C@H](N)C3)n2)c(F)n1 [Example 484] ?
Found: 10 to 25 µM

Lookup: Query (compound): Nc1nc(N)c(-c2ccccc2C(F)(F)F)nc1C(=O)Nc1cnccc1N1CCCC(N)C1 (stereo not drawn) [Example 341] ; field requested: IC50
Found: < 1 µM

Lookup: Requested field: IC50. Item: COc1ccccc1-c1cnc(N)c(C(=O)Nc2[nH]c(=O)ncc2N2CCCCC2)n1 [Example 594]
Found: > 25 µM

Lookup: What value of IC50 has been recorded for this entry: Nc1nccnc1C(=O)Nc1cnccc1N1CCCC(N)C1 (stereo not drawn) [Example 187]
Found: < 1 µM

Lookup: What value of IC50 has been recorded for this entry: Nc1ncc(Br)nc1C(=O)Nc1[nH]c(=O)ncc1N1CCC(F)CC1 [Example 150]
Found: 1 to 10 µM

Lookup: Reported IC50, compound NC(=O)c1cccc(-c2cnc(N)c(C(=O)Nc3cnccc3N3CCCC(N)C3)n2)c1 (stereo not drawn) [Example 369] : ____
Found: < 1 µM

Lookup: Look up IC50 for this compound: Nc1nccnc1C(=O)Nc1cc(C(=O)c2ccccc2)ccc1N1CCCC(N)C1 (stereo not drawn) [Example 231]
Found: 10 to 25 µM

Lookup: Need IC50 of Nc1ncc(-c2ccccc2F)nc1C(=O)Nc1cc(C(=O)c2ccccc2)ccc1N1CCC(N)CC1 [Example 439] , thanks.
Found: 1 to 10 µM

Lookup: Fill blank: measured IC50 of the compound CN(C)C1CCN(c2ccncc2NC(=O)c2nccnc2N)CC1 [Example 126] is ____.
Found: < 1 µM

Lookup: Which measured IC50 value corresponds to CN(C)CCN(C)c1ccncc1NC(=O)c1nc(Br)cnc1N [Example 124] ?
Found: 10 to 25 µM

Lookup: IC50 lookup needed for Nc1ncc(-c2ccccc2Cl)nc1C(=O)Nc1[nH]c(=O)ncc1N1CCCC(N)C1 (stereo not drawn) [Example 402] , thanks.
Found: 1 to 10 µM

Lookup: # IC50 lookup, item Nc1nccnc1C(=O)Nc1ccccc1N1CCNCC1 [Example 202]
Found: < 1 µM

These data points were gathered from patent US20140249135A1.
